test system: PPARg homodimer (NR concentration 180 nM); assay: PBM binding z-score (relative to random genomic background probes); higher = stronger binding; sequences stand for … in GC…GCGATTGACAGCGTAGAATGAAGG
The label depends only on PBM binding z-score: Fulfilled if it is at least 0.7, Not fulfilled if it is smaller.

>  <item.sequence>
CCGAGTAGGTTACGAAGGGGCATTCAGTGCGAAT

>  <group.label>
Not fulfilled

$$$$
>  <item.sequence>
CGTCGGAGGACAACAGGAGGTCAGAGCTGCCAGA

>  <group.label>
Fulfilled

$$$$
>  <item.sequence>
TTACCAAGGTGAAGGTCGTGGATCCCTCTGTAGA

>  <group.label>
Fulfilled

$$$$
>  <item.sequence>
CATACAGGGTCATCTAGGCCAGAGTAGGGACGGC

>  <group.label>
Fulfilled

$$$$
>  <item.sequence>
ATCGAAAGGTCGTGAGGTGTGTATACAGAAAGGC

>  <group.label>
Fulfilled

$$$$
>  <item.sequence>
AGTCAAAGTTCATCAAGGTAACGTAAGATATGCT

>  <group.label>
Fulfilled

$$$$
>  <item.sequence>
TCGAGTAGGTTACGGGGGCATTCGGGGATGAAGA

>  <group.label>
Fulfilled

$$$$
>  <item.sequence>
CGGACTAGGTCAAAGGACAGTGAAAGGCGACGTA

>  <group.label>
Fulfilled

$$$$
>  <item.sequence>
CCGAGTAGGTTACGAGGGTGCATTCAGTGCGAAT

>  <group.label>
Not fulfilled

$$$$
>  <item.sequence>
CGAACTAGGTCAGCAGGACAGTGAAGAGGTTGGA

>  <group.label>
Not fulfilled

$$$$
>  <item.sequence>
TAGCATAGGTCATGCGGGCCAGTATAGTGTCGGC

>  <group.label>
Fulfilled

$$$$
>  <item.sequence>
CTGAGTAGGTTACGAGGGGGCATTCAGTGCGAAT

>  <group.label>
Fulfilled

$$$$

* * *

test system: LXRb:RXRa (NR concentration 270 nM, RXRa partner concentration 90 nM); test: PBM binding z-score (relative to random genomic background probes); higher = stronger binding; sequences stand for … in GC…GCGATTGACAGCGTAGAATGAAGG

>  <item.sequence>
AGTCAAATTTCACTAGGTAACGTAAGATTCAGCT

>  <PBM binding z-score>
0.0425

$$$$
>  <item.sequence>
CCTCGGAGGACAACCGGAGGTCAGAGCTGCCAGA

>  <PBM binding z-score>
1.52

$$$$
>  <item.sequence>
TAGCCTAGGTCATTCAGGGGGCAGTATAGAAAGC

>  <PBM binding z-score>
5.66

$$$$
>  <item.sequence>
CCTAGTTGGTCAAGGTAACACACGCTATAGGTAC

>  <PBM binding z-score>
0.713

$$$$
>  <item.sequence>
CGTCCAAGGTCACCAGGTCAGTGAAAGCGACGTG

>  <PBM binding z-score>
4.08

$$$$
>  <item.sequence>
TCGACTAGGTTACGGGGGCATTCAGGGATGAAGA

>  <PBM binding z-score>
5.58

$$$$
>  <item.sequence>
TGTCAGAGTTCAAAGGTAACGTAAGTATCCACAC

>  <PBM binding z-score>
4.65

$$$$
>  <item.sequence>
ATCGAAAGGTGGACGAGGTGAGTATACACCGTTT

>  <PBM binding z-score>
-0.111

$$$$
>  <item.sequence>
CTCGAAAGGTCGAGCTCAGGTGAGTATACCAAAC

>  <PBM binding z-score>
3.02

$$$$
>  <item.sequence>
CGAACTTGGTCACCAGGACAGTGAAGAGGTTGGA

>  <PBM binding z-score>
-0.452

$$$$
>  <item.sequence>
AGTAGCAGGCCAAGGGTCACTCAAGATTAGTCCG

>  <PBM binding z-score>
2.8

$$$$
>  <item.sequence>
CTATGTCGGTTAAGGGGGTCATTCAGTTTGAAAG

>  <PBM binding z-score>
6.42

$$$$
>  <item.sequence>
TCGAGTAGGCTACGGGGGCATTCAGGGATGAAGA

>  <PBM binding z-score>
3.17

$$$$
>  <item.sequence>
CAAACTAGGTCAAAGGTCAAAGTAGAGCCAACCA

>  <PBM binding z-score>
7.55

$$$$
>  <item.sequence>
CCTAGCAGACCAATCTGGGTCACTCAAGGCTTGA

>  <PBM binding z-score>
0.514

$$$$
>  <item.sequence>
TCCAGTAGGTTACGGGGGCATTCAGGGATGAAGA

>  <PBM binding z-score>
5.7

$$$$
>  <item.sequence>
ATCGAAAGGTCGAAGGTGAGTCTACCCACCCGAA

>  <PBM binding z-score>
2.87

$$$$
>  <item.sequence>
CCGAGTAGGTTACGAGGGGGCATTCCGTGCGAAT

>  <PBM binding z-score>
6.21

$$$$
>  <item.sequence>
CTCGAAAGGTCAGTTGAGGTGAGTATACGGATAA

>  <PBM binding z-score>
4.51

$$$$
>  <item.sequence>
CGAACTAGGTCAAAGGACACTGAAAGGCGACGTA

>  <PBM binding z-score>
2.15

$$$$
>  <item.sequence>
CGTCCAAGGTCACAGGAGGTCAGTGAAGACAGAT

>  <PBM binding z-score>
5.97

$$$$
>  <item.sequence>
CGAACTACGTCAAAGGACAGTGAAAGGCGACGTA

>  <PBM binding z-score>
-0.675

$$$$
>  <item.sequence>
TCTAGTTGGTCATGGAGGTCACACACGACGGGTA

>  <PBM binding z-score>
3.3

$$$$
>  <item.sequence>
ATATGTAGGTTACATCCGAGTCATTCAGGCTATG

>  <PBM binding z-score>
0.957

$$$$
>  <item.sequence>
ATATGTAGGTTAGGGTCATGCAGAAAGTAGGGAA

>  <PBM binding z-score>
4.29

$$$$
>  <item.sequence>
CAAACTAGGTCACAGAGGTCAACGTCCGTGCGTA

>  <PBM binding z-score>
5.93

$$$$

* * *

test system: RARa:RXR (NR concentration 270 nM, RXRa partner concentration 90 nM); experiment: PBM binding z-score (relative to random genomic background probes); higher = stronger binding; sequences stand for … in GC…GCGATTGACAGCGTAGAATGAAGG
Measured PBM binding z-score determines class: interval 1 = under 2, interval 2 = from 2 up to 4, interval 3 = 4 and over

>  <item.sequence>
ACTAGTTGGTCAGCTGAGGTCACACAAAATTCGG

>  <group.label>
interval 3

$$$$
>  <item.sequence>
TAGCCTAAGTCATGGGCCAGTATACCACGCGAAC

>  <group.label>
interval 1

$$$$
>  <item.sequence>
CCGAGTAGGTGACGAGGGGGCATTCAGTGCGAAT

>  <group.label>
interval 2

$$$$
>  <item.sequence>
CCTACTGGGCAAAAAAGGTCATTGATGCCGATAA

>  <group.label>
interval 3

$$$$
>  <item.sequence>
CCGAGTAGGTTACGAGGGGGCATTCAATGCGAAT

>  <group.label>
interval 2

$$$$
>  <item.sequence>
CCTAGCAGGCCACGGTCACTCAAGCATTTCGCTT

>  <group.label>
interval 1

$$$$
>  <item.sequence>
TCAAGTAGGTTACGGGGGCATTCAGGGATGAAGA

>  <group.label>
interval 2

$$$$
>  <item.sequence>
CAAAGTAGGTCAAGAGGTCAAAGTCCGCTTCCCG

>  <group.label>
interval 3

$$$$
>  <item.sequence>
CTAACTAGGTCACAGAGGTCAAAGTCCGTGCGTA

>  <group.label>
interval 3

$$$$
>  <item.sequence>
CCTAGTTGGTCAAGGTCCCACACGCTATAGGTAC

>  <group.label>
interval 1

$$$$
>  <item.sequence>
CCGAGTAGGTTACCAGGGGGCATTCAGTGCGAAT

>  <group.label>
interval 2

$$$$
>  <item.sequence>
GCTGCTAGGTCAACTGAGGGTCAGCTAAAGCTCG

>  <group.label>
interval 3

$$$$
>  <item.sequence>
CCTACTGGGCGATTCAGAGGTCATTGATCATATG

>  <group.label>
interval 3

$$$$
>  <item.sequence>
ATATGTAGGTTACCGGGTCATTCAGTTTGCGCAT

>  <group.label>
interval 3

$$$$
>  <item.sequence>
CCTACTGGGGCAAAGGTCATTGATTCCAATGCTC

>  <group.label>
interval 3

$$$$
>  <item.sequence>
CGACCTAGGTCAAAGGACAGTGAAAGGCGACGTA

>  <group.label>
interval 2

$$$$
>  <item.sequence>
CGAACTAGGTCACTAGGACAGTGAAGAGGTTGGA

>  <group.label>
interval 1

$$$$
>  <item.sequence>
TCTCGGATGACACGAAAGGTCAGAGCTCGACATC

>  <group.label>
interval 3

$$$$
>  <item.sequence>
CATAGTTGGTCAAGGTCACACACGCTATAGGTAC

>  <group.label>
interval 3

$$$$
>  <item.sequence>
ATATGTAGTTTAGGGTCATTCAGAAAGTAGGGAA

>  <group.label>
interval 3

$$$$
>  <item.sequence>
CGAACCAGGTCACCAGGACAGTGAAGAGGTTGGA

>  <group.label>
interval 2

$$$$
>  <item.sequence>
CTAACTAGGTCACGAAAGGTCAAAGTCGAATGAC

>  <group.label>
interval 3

$$$$
>  <item.sequence>
CCGAGTAGGTTACGAGGTGGCATTCAGTGCGAAT

>  <group.label>
interval 1

$$$$
>  <item.sequence>
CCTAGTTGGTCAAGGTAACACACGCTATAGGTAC

>  <group.label>
interval 1

$$$$
>  <item.sequence>
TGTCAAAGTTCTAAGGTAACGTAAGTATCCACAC

>  <group.label>
interval 1

$$$$
>  <item.sequence>
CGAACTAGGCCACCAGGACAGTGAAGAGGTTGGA

>  <group.label>
interval 1

$$$$
>  <item.sequence>
CCGAGTAGGTTACGAGCGGGCATTCAGTGCGAAT

>  <group.label>
interval 1

$$$$
>  <item.sequence>
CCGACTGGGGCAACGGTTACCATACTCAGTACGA

>  <group.label>
interval 1

$$$$
>  <item.sequence>
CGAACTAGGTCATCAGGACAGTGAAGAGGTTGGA

>  <group.label>
interval 2

$$$$
>  <item.sequence>
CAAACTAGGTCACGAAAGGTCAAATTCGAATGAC

>  <group.label>
interval 3

$$$$
>  <item.sequence>
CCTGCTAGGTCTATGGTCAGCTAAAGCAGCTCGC

>  <group.label>
interval 1

$$$$
>  <item.sequence>
CCTTACGGTTCACTGACAGGTTATAGCATTTGGA

>  <group.label>
interval 2

$$$$
>  <item.sequence>
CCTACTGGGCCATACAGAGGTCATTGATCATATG

>  <group.label>
interval 3

$$$$
>  <item.sequence>
CTATGTAGGTTAAGGAGGTCATTCAGTTTGAAAG

>  <group.label>
interval 3

$$$$
>  <item.sequence>
CCTTACGGGTCTCTCCAGGTTATAGCATCGGAGT

>  <group.label>
interval 1

$$$$
>  <item.sequence>
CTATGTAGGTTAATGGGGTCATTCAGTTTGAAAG

>  <group.label>
interval 3

$$$$
>  <item.sequence>
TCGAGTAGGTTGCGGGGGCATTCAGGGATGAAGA

>  <group.label>
interval 2

$$$$
>  <item.sequence>
TTACCAAGGTGAACTGAGGTCGTTGATCCAACTC

>  <group.label>
interval 2

$$$$
>  <item.sequence>
CGAACTAGGTCAAAGTACAGTGAAAGGCGACGTA

>  <group.label>
interval 2

$$$$
>  <item.sequence>
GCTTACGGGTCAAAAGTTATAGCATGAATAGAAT

>  <group.label>
interval 2

$$$$
>  <item.sequence>
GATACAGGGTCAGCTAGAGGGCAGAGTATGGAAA

>  <group.label>
interval 3

$$$$
>  <item.sequence>
ATATGTAGGTTAGCTGGCGTCATTCAGACTAGGC

>  <group.label>
interval 1

$$$$
>  <item.sequence>
CCGAGTAGGTTACGAGGGGGCATTCAGTGCGAAT

>  <group.label>
interval 2

$$$$
>  <item.sequence>
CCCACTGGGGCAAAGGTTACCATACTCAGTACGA

>  <group.label>
interval 2

$$$$
>  <item.sequence>
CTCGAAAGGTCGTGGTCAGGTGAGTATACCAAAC

>  <group.label>
interval 3

$$$$
>  <item.sequence>
ACTCGGAGGACAAAGGTAAGAGCTACGCCAGTGA

>  <group.label>
interval 1

$$$$
>  <item.sequence>
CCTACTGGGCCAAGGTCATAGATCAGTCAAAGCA

>  <group.label>
interval 3

$$$$
>  <item.sequence>
CTATGTAGGCTAAGGGGGTCATTCAGTTTGAAAG

>  <group.label>
interval 3

$$$$
>  <item.sequence>
AACGAAAGGTCGACGAGGTGAGTATACACCGTTT

>  <group.label>
interval 2

$$$$
